- experiment: thallium flux effects in parental CHO cells, counter-screen for KCNQ1 inhibitor project, cell-based, Tl flux (AID 588366);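 note: ratio is peak minus minimum fluorescence divided by baseline fluorescence; actives read low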
- study-conditions: parental CHO-K1, FluxOR thallium flux fluorescence ratio; at 10 µM; zero means no signal rise above baseline
Some of the results follow. Activity calls are given as the source filed them.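 Rule for the calls: active = mean of duplicate thallium-flux fluorescence ratios in parental host cells more than 5 SD below the buffer control mean (cut at about 0.38 in these data); inactive = the rest.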
Mark one answer only. Choices: 1 = active, 0 = inactive

- compound: "Cc1nnc(SC(C(=O)Nc2cc(Cl)cc(Cl)c2)c2ccccc2)[nH]c1=O (centres undefined)"
  assigned-class: 0
- compound: "CCOc1ccc(CN2CCN(Cc3c[nH]c4ccccc34)CC2)cc1"
  assigned-class: 0
- compound: "CSc1nccc(NC(=O)c2ccc(C(C)(C)C)cc2)n1"
  assigned-class: 1
- compound: "Cn1nc(-c2ccc(Cl)cc2)c2cc(C(=O)NCc3ccco3)sc21"
  assigned-class: 0
- compound: "CCc1cc(C(c2ccccc2OC)N2CCOCC2)c(NC(=O)c2ccccc2)s1 (centres undefined)"
  assigned-class: 1

[in] Identify the outcome logged in this assay for the compound shown: `COC(=O)c1ccc(NC(=O)Nc2ccc(C)cc2)cc1`
[out] 0

[in] Record request — test call for `c1ccc2c(c1)C(=NC1CCCCC1)NC2=NC1CCCCC1`
[out] 0

###

- tested-target: Short transient receptor potential channel 6 (Mus musculus)
- experiment: TRPC6 potentiation by TRPC4 potentiator hits, confirmation, selectivity assay for TRPC4 potentiator project, HEK293 cells, membrane potential dye, duplicate (AID 434952)
- study-conditions: HEK293 TRPC6, membrane potential dye fluorescence, at 10 µM, maximal acetylcholine added after compound; hits give high values
Active and inactive are the calls of the source.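 How the source made its calls: active means compound raising the membrane signal above positive-control mean plus 3 SD in both repeats, and a primary screen hit; inactive means the rest.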
metric: potentiation, percent of control

These recorded examples may help you get a feel for the data.
- compound: "COc1ccc(C(CNC(=O)C(C)c2ccc3cc(OC)ccc3c2)N(C)C)cc1 (stereo not given)"
  potentiation, percent of control: "inactive"
- compound: "CCOC(=O)C1(CCOc2ccccc2)CCN(Cc2ccc3c(c2)OCCO3)CC1"
  potentiation, percent of control: "inactive"
- compound: "O=C(c1c(F)cccc1F)N1CCN(c2ncc(Br)cn2)CC1"
  potentiation, percent of control: "inactive"
- compound: "CCN(CC)CCSc1nc2ccc(OC)cc2[nH]1"
  potentiation, percent of control: "inactive"
- compound: "CC(=O)Nc1ccc(C2(c3ccc(NC(C)=O)cc3)C(=O)Nc3ccccc32)cc1"
  potentiation, percent of control: "inactive"
- compound: "Cc1ccccc1C(=O)NNC(=S)NC(=O)c1ccccc1"
  potentiation, percent of control: "inactive"
- compound: "Cc1cc(C)c(CN2CCN(Cc3ccc(C)o3)C(CCO)C2)c(-n2cccn2)c1 (stereo not given)"
  potentiation, percent of control: "inactive"
- compound: "CC1CC(C)CN(CCCNC(=O)c2nn(C)c3c2CS(=O)(=O)c2ccccc2-3)C1 (stereo not given)"
  potentiation, percent of control: "inactive"
- compound: "CN(C)CCCN(C(=O)c1ccc(S(=O)(=O)N2CCOCC2)cc1)c1nc2ccc(F)cc2s1"
  potentiation, percent of control: "inactive"

[in] Give the measured potentiation, percent of control of Cc1ccc(C2(O)CN(c3ccccc3)C3=[N+]2CCS3)cc1 (stereo not given) .
[out] inactive

###

- Tested on: TRPC4 (transient receptor potential cation channel C4), mouse
- experiment: TRPC4 inhibition by TRPC6 hit compounds, confirmation, selectivity assay for TRPC6 modulator project, cell-based, second screen, HEK293 TRPC4/mu-opioid, membrane potential dye (AID 488928);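 note: TRPC4 counter screen for TRPC6 hits run under conditions tuned for TRPC6 not TRPC4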
- study-conditions: membrane potential dye fluorescence, at 10 µM, stimulated with maximal-effect DAMGO
Some of the results follow. Activity calls are given as the source filed them.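 The calls were made as follows: active = drop in membrane potential signal beyond 5 SD of the control wells in both duplicate plates; inactive = the rest.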
Please answer using one outcome listed in Yes = active, No = inactive

These recorded examples may help you get a feel for the data.
- compound: "O=C(C1CCN(S(=O)(=O)Cc2ccccc2)CC1)N1CCCc2ccccc21"
  assigned-class: "No"
- compound: "Cc1cc(C)c2nc3nc(C)cc(C)c3c(N)c2c1"
  assigned-class: "Yes"
- compound: "O=[N+]([O-])c1ccccc1Nc1ccc(O)cc1"
  assigned-class: "Yes"
- compound: "N=c1c2c3c(sc2ncn1CCCN1CCOCC1)CCCCC3"
  assigned-class: "Yes"
- compound: "CC(=O)Nc1ccc(NC(=O)CN2CCCC(C)C2)c(Cl)c1 (configuration not stated)"
  assigned-class: "No"
- compound: "O=S(=O)(c1cccc(Cn2nnc(-c3ccc(F)cc3)n2)c1)N1CCOCC1"
  assigned-class: "No"
- compound: "COC(=O)c1c(NC(=O)c2ccc(S(=O)(=O)N3CCOCC3)cc2)sc2c1CCN(C(C)C)C2"
  assigned-class: "Yes"
- compound: "c1ccc(C2CNCc3c2ccc2ccccc32)cc1 (configuration not stated)"
  assigned-class: "Yes"

Okay, next one:
[in] Assay result, entry COc1ccccc1C(CNC(=O)c1cccc(NS(=O)(=O)c2ccc(Br)cc2)c1)N(C)C (configuration not stated) — outcome?
[out] Yes
